- Tested on: carrageenin-induced hind paw edema
- Assay details: Anti-inflammatory activity (carrageenin-induced hind paw edema in rats)
- Format: in vivo, Male Wistar rats
- Experimental context: Rattus norvegicus, po, 3 h; 2 mg/kg p.o., three hours; read-out: Inhibitory rate, three hours after the carrageenin injection
So basically: inhibition in vivo at 2 mg/kg at 20% or higher? That is T. Lower than 20%? That is F.

1. O=C(O)Cc1ccc2c(c1)SCC1CCCCC1C2=O (centres unmarked); F
2. CC(C(=O)NCC(=O)O)c1ccc2c(c1)SCC1CCCCC1C2=O (centres unmarked); F
3. CC(C(N)=O)c1ccc2c(c1)SCC1CCCCC1C2=O (single isomer, unassigned); T
4. CC(C(=O)OCCc1ccccc1)c1ccc2c(c1)SCC1CCCCC1C2=O (centres unmarked); T
5. CC(C(=O)O)c1ccc2c(c1)OCC1CCCCC1C2=O (centres unmarked); T
